Target: T1, Antigen CD66c (CEACAM6; Sino Biological, Inc.) (UniProt P40199 35-320)
T1 construct: Bought antigen, coated on the ELISA plate; construct not described; also called CECACAM6 (CD66c) antigen; CD66c antigen
T1 sequence (looked up): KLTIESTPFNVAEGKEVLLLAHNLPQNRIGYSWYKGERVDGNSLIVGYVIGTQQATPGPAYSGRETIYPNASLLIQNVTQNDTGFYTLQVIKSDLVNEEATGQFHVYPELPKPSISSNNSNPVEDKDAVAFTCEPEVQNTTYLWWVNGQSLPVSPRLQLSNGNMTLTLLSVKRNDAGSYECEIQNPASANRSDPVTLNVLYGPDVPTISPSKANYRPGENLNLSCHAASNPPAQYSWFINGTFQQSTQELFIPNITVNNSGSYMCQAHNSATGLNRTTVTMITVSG
Test: ELISA, CEACAM6 coated 100 ng/well, antibody at 370.37 ng/ml
Measured OD 450 nm, listed per entry for reference.
Answer shape: numeric part, then the unit.

For orientation, consider the following solved cases.
| Binder | OD 450 nm |
| --- | --- |
| recombinant humanized anti-CD66c antibody Protein ID 3007 (Vk7 + VH6) (antibody, human IgG1, V domains shown, also called hu 3007; #43) VH: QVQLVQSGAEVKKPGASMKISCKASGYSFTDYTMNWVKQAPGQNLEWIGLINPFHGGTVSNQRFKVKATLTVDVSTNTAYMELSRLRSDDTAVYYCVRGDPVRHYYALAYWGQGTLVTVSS VL: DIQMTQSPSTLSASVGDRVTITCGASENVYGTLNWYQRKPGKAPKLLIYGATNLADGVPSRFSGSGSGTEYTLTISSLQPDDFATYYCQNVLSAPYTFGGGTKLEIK | 3.16 OD 450 nm |
| recombinant humanized anti-CD66c antibody Protein ID 3043 (Vk8 + VH6) (antibody, V domains shown, also called hu 3043; #71) VH: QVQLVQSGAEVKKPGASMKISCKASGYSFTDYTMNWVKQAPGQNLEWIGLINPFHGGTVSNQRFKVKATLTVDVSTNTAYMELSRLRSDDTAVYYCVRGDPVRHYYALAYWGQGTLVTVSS VL: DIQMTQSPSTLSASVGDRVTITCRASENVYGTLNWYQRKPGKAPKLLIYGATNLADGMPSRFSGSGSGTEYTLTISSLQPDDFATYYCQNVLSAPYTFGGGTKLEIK | 2.92 OD 450 nm |

Now consider the entry below.
Form field OD 450 nm, entry recombinant humanized anti-CD66c antibody Protein ID 2938 (Vk5 + VH7) (antibody, human IgG1, V domains shown, also called hu 2938) VH: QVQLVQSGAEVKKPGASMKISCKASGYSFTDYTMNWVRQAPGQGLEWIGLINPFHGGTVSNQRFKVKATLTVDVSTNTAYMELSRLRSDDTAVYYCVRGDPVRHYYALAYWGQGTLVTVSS VL: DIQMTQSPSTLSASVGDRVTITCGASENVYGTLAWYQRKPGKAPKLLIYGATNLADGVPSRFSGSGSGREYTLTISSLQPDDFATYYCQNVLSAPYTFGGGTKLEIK : 3.08 OD 450 nm
